- Test system: PAF-induced platelet aggregation
- protocol details: Inhibitory effect on PAF-induced platelet aggregation in rabbits (in vitro test)
- Type: cell-based
- test context: Oryctolagus cuniculus, rabbit PRP, PAF 1.8×10^-7 M, 37° C., read-out: Inhibition of PAF-induced platelet aggregation, IC50
outcome measure: IC50

For orientation, consider the following solved cases.
>>> assay_result("Cc1nnc2n1-c1sc(CCCCc3ccc(CC(C)C)cc3)cc1C(c1ccccc1Cl)=NC2 [Compound C]")
"0.03 to 0.1 µg/mL"
>>> assay_result("Cc1nnc2n1-c1sc(CCc3ccc(-c4ccccc4)cc3)cc1C(c1ccccc1Cl)=NC2 [Compound F]")
"0.01 to 0.03 µg/mL"
>>> assay_result("Cc1nnc2n1-c1sc(Cc3ccc(CC(C)C)cc3)cc1C(c1ccccc1Cl)=NC2 [Compound H]")
"0.003 to 0.01 µg/mL"
>>> assay_result("Cc1ccc(CCc2cc3c(s2)-n2c(C)nnc2CN=C3c2ccccc2Cl)cc1 [Compound B]")
"0.01 to 0.03 µg/mL"
>>> assay_result("Cc1nnc2n1-c1sc(CCCc3ccc(CC(C)C)cc3)cc1C(c1ccccc1Cl)=NC2 [Compound I]")
"0.01 µg/mL"
>>> assay_result("CCc1nnc2n1-c1sc(CCc3ccc(CC(C)C)cc3)cc1C(c1ccccc1Cl)=NC2 [Compound J]")
"0.01 to 0.03 µg/mL"

Entry Cc1nnc2n1-c1sc(CCc3ccc(CC(C)C)cc3)cc1C(c1ccccc1Cl)=NC2 [Compound A] , IC50 reported as 0.003 to 0.01 µg/mL

Briefly, IC50 measured for Cc1nnc2n1-c1sc(CCc3ccc(CC(C)C)cc3)cc1C(c1ccccc1Cl)=NC2C (centres unmarked) [Compound K] : 0.01 to 0.03 µg/mL
